Assay: Pharmacokinetics and oral bioavailability after single oral administration (30 mg/kg), plasma LC-MS/MS
Assay type: in vivo, Female Sprague Dawley rats
Conditions: female, Sprague-Dawley, rat, plasma, po, 30 mg/kg, plasma analyte after zingerone p.o. 30 mg/kg, mean ± SD n=6
readoutLabel: AUC(0-inf) (ng·h/mL)
I only need the number, in ng·h/mL, no unit after it.

Tell me the measured AUC(0-inf) of COc1cc(CCC(C)=O)ccc1O [zingerone, 4-(4-hydroxy-3-methoxyphenyl)-2-butanone] , please.
950

----------
Experiment: Interconversion clearance between 6G and 6S after intravenous administration
Format: in vivo, Female Sprague Dawley rats
Conditions: female, Sprague-Dawley, rat, plasma, iv; single i.v. 3 mg/kg; read-out: CL20 (irreversible elimination clearance of 6S) (converted)
readoutLabel: clearance (mL/min/kg)
I only need the number, in mL/min/kg, no unit after it.

Tell me the measured clearance of CCCCC/C=C/C(=O)CCc1ccc(O)c(OC)c1 [[6]-shogaol] , please.
11.3
